Form field: shrunken log2 fold change (one value per entry).
tested on: Escherichia coli TOP10; test: shrunken log2 fold change of peptide-encoding DNA abundance (4.5 h post-induction vs induction); higher = less antimicrobial activity (less host growth inhibition); settings: time post-induction: 4.5 h; library: site-saturation at positions 5, 18, 19, 20
PARAMETER_MEASURED: shrunken log2 fold change

>>> data_value("RRIRLRPPRLPRPRPRPQTCPRP")
-0.28
>>> data_value("RRIRYRPPRLPRPRPRPREYPRP")
0.0168
>>> data_value("RRIRYRPPRLPRPRPRPWMNPRP")
-0.00197
>>> data_value("RRIRGRPPRLPRPRPRPCSNPRP")
0.275
>>> data_value("RRIRIRPPRLPRPRPRPANYPRP")
-0.33
>>> data_value("RRIRYRPPRLPRPRPRPPYKPRP")
-0.23
>>> data_value("RRIRERPPRLPRPRPRPYDQPRP")
-0.518
>>> data_value("RRIRRRPPRLPRPRPRPFKPPRP")
0.174
>>> data_value("RRIRCRPPRLPRPRPRPHHVPRP")
0.0159
>>> data_value("RRIRKRPPRLPRPRPRPFMSPRP")
0.0192
>>> data_value("RRIRCRPPRLPRPRPRPAQLPRP")
-0.169
>>> data_value("RRIRCRPPRLPRPRPRPYVDPRP")
-0.232
>>> data_value("RRIRMRPPRLPRPRPRPRCQPRP")
0.00313
>>> data_value("RRIRCRPPRLPRPRPRPQLFPRP")
-0.242
>>> data_value("RRIRIRPPRLPRPRPRPVICPRP")
-0.063

* * *

system: Escherichia coli TOP10; assay: shrunken log2 fold change of peptide-encoding DNA abundance (4.5 h post-induction vs induction); higher = less antimicrobial activity (less host growth inhibition); conditions: time post-induction: 4.5 h; library: site-saturation at positions 5, 18, 19, 20;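 note: peptides expressed intracellularly from a pBAD plasmid library in pooled LB shake-flask culture, induced with 0.3% L-arabinose, DNA abundance read by NGS, three biological replicates, DESeq2 with apeglm shrinkage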
PARAMETER_MEASURED: shrunken log2 fold change

>>> data_value("RRIRVRPPRLPRPRPRPYFCPRP")
-0.483
>>> data_value("RRIRRRPPRLPRPRPRPIMQPRP")
-0.0408
>>> data_value("RRIRFRPPRLPRPRPRPCGFPRP")
0.0163
>>> data_value("RRIRERPPRLPRPRPRPDVIPRP")
-0.502
>>> data_value("RRIRYRPPRLPRPRPRPVKSPRP")
-0.84
>>> data_value("RRIRFRPPRLPRPRPRPRCDPRP")
0.0576
>>> data_value("RRIRSRPPRLPRPRPRPGWGPRP")
0.291
>>> data_value("RRIRSRPPRLPRPRPRPTSCPRP")
-0.0946
>>> data_value("RRIRCRPPRLPRPRPRPCCMPRP")
-0.392
>>> data_value("RRIRSRPPRLPRPRPRPGYCPRP")
-0.119
>>> data_value("RRIRARPPRLPRPRPRPSLLPRP")
0.321
>>> data_value("RRIRIRPPRLPRPRPRPQENPRP")
-0.494
>>> data_value("RRIRWRPPRLPRPRPRPHEWPRP")
0.0987
>>> data_value("RRIRMRPPRLPRPRPRPWIKPRP")
0.101
>>> data_value("RRIRFRPPRLPRPRPRPSGHPRP")
-0.212
>>> data_value("RRIRCRPPRLPRPRPRPSCTPRP")
-0.287
>>> data_value("RRIRARPPRLPRPRPRPKIFPRP")
-0.0226
>>> data_value("RRIRRRPPRLPRPRPRPMQFPRP")
-0.058
>>> data_value("RRIRDRPPRLPRPRPRPQIYPRP")
-0.114
>>> data_value("RRIRNRPPRLPRPRPRPFECPRP")
-0.000687
>>> data_value("RRIRNRPPRLPRPRPRPPWEPRP")
-0.0446
>>> data_value("RRIRSRPPRLPRPRPRPGCNPRP")
0.0419
>>> data_value("RRIRQRPPRLPRPRPRPFDTPRP")
-0.144
>>> data_value("RRIRDRPPRLPRPRPRPDFQPRP")
0.189
>>> data_value("RRIRIRPPRLPRPRPRPYRHPRP")
-0.0614
>>> data_value("RRIRPRPPRLPRPRPRPWYEPRP")
-0.441
>>> data_value("RRIRSRPPRLPRPRPRPKFPPRP")
0.0385
>>> data_value("RRIRIRPPRLPRPRPRPHTNPRP")
-0.906
>>> data_value("RRIRWRPPRLPRPRPRPSREPRP")
0.807
>>> data_value("RRIRHRPPRLPRPRPRPVYYPRP")
-1.02
>>> data_value("RRIRIRPPRLPRPRPRPKQLPRP")
-0.0927
>>> data_value("RRIRTRPPRLPRPRPRPNGDPRP")
-0.0598
